src = patent US20220372112A1

A collection of binders and their measured pEC50
Biological target: T1, human Claudin 18.2 (human, UniProt P56856-2 1-261)
T1 construct: whole, on cells
T1 sequence (looked up): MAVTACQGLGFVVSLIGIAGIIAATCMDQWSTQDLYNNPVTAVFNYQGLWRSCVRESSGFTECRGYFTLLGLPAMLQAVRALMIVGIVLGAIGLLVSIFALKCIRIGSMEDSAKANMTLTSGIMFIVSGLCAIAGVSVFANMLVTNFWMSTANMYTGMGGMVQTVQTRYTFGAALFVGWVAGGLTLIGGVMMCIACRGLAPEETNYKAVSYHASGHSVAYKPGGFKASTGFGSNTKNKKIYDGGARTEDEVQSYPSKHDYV
Assay: flow cytometry (iQue) on cells, antibody from 100 nM in 5-fold steps; cell line not named in Example 5
Scale: pEC50 equals -log10([C]), with [C] in mol/L.

Input 18D10.V12 (antibody, V domains shown, Humanized; also called 18D10VLv1 + 18D10VHv2) VH: QVQLQESGPGLVKPSETLSLTCTVSGGSISSNYAWNWIRQPPGKGLEWMGYINYSGNTNYNPSLKSRITISRDTSKNQFSLKLSSVTAADTAVYYCATSYYGNSFIYWGQGTLVTVSS VL: DIVMTQSPDSLAVSLGERATINCKSSQSLLNSGNQKNYLTWYQQKPGQPPKLLIYWASTRESGVPDRFSGSGSGTDFTLTISSLQAEDVAVYYCQNAYSFPWTFGQGTKVEIK . Output pEC50: 8.78

Input 18D10.V16 (antibody, V domains shown, Humanized; also called 18D10VLv1 + 18D10VHv6) VH: QVQLQESGPGLVKPSETLSLTCTVSGGSISSNYAWNWIRQPPGKGLEWIGYIYYSGNTNYNPSLKSRVTISRDTSKNQFSLKLSSVTAADTAVYYCATSYYGNSFIYWGQGTLVTVSS VL: DIVMTQSPDSLAVSLGERATINCKSSQSLLNSGNQKNYLTWYQQKPGQPPKLLIYWASTRESGVPDRFSGSGSGTDFTLTISSLQAEDVAVYYCQNAYSFPWTFGQGTKVEIK . Output pEC50: 8.64

Input 18D10 (antibody, V domains shown, also called Clone 18D10; 18D10 Chimera) VH: DVQLQESGPGLVKPSQSLSLTCTVTGYSITSNYAWNWIRQFPGNKLEWMGYINYSGNTNYNPSLKSRISITRDTSKNQFFLQLNSVTAEDTATYYCATSYYGNSFIYWGQGTLVTVSA VL: DIVMTQSPSSLTVTAGEKVTMSCKSSQSLLNSGNQKNYLTWYQQKPGQPPKLLIYWASTRESGVPDRFTGSGSGTDFTLTISSVQAEDLAVYYCQNAYSFPWTFGGGTKLEIK . Output pEC50: 8.68

Input h15F9.v15r2 (antibody, V domains shown, Humanized; also called 15F9VLv1 + 15F9VHv5r2) VH: EVQLVQSGSELKKPGASVKVSCKASGYTFTNYGINWVRQAPGQGLEWMGWINPYTGETTYAEEFKGRFVFSLDTSVSTAYLQISSLKAEDTAVYFCARLYYGNRFDSWGQGTLVTVSS VL: DIVMTQSPDSLAVSLGERATINCKSSQSLLNSGNQRNYLTWYQQKPGQPPKLLIYWASTRESGVPDRFSGSGSGTDFTLTISSLQAEDVAVYYCQNAYYYPLTFGGGTKVEIK . Output pEC50: 8.78

Input h18A9.v16 (antibody, V domains shown, Humanized; also called 18A9VLv1 + 18A9VHv6) VH: QVQLVQSGAEVKKPGASVKVSCKPSGYAFTNYLIDWVRQAPGQGLEWMGGINPGSGDTVYNEKFQGRVTLTADKSSSTAYMELSSLRSEDTAVYFCARRVRGNSFDSWGQGTLVTVSS VL: DIVMTQSPDSLAVSLGERATINCKSSQSLLNSGNQKNYLTWYQQKPGQPPKLLIYWASTRESGVPDRFSGSGSGKDFTLTISSLQAEDVAVYYCQNNYFYPLTFGGGTKVEIK . Output pEC50: 9.10

Input h15F9.v25r2 (antibody, V domains shown, Humanized; also called 15F9VLv2 + 15F9VHv5r2) VH: EVQLVQSGSELKKPGASVKVSCKASGYTFTNYGINWVRQAPGQGLEWMGWINPYTGETTYAEEFKGRFVFSLDTSVSTAYLQISSLKAEDTAVYFCARLYYGNRFDSWGQGTLVTVSS VL: DIVMTQSPDSLAVSLGERATINCKSSQSLLNSGNQRNYLAWYQQKPGQPPKLLIYWASTRESGVPDRFSGSGSGTDFTLTISSLQAEDVAVYYCQQAYYYPLTFGGGTKVEIK . Output pEC50: 8.79

Input h18A9.v13 (antibody, V domains shown, Humanized; also called 18A9VLv1 + 18A9VHv3) VH: QVQLVQSGAEVKKPGSSVKVSCKPSGYTFTNYLIDWVRQAPGQGLEWMGGINPGSGDTVYNEKFQGRVTLTADKSSMTAYMELSSLRSEDTAVYYCARRVRGNSFDSWGQGTLVTVSS VL: DIVMTQSPDSLAVSLGERATINCKSSQSLLNSGNQKNYLTWYQQKPGQPPKLLIYWASTRESGVPDRFSGSGSGKDFTLTISSLQAEDVAVYYCQNNYFYPLTFGGGTKVEIK . Output pEC50: 9.12

Input h15F9.v25r1 (antibody, V domains shown, Humanized; also called 15F9VLv2 + 15F9VHv5r1) VH: QVQLVQSGSELKKPGASVKVSCKASGYTFTNYGINWVRQAPGQGLEWMGWINPNTGETTYAEEFKGRFVFSLDTSVSTAYLQISSLKAEDTAVYFCARLYYGNRFDSWGQGTLVTVSS VL: DIVMTQSPDSLAVSLGERATINCKSSQSLLNSGNQRNYLAWYQQKPGQPPKLLIYWASTRESGVPDRFSGSGSGTDFTLTISSLQAEDVAVYYCQQAYYYPLTFGGGTKVEIK . Output pEC50: 8.76

Next:
Input 18A9 (antibody, V domains shown, also called Clone 18A9; 18A9 Chimera) VH: QVQLQQSGREVVRPGTSVKVSCKPSGYAFTNYLIDWVKQRPGQGLEWIGGINPGSGDTVYNEKFKAKATLTADKSSMTANMQLSSLTSDDSAVYFCARRVRGNSFDSWGQGTLVTVSA VL: DIVMSQSPSSLTVTAGEKVTMSCKSSQSLLNSGNQKNYLTWYQQKPGQPPKLLIYWASTRESGVPDRFTGSGSGKDFTLTISSVQAEDLALYYCQNNYFYPLTFGAGTKLELK . Output pEC50: 8.99

Input h18A9.v17 (antibody, V domains shown, Humanized; also called 18A9VLv1 + 18A9VHv7) VH: QVQLVQSGAEVKKPGASVKVSCKPSGYTFTNYLIDWVRQAPGQGLEWMGGINPGSGDTVYNEKFQGRVTLTADTSTSTVYMELSSLRSEDTAVYFCARRVRGNSFDSWGQGTLVTVSS VL: DIVMTQSPDSLAVSLGERATINCKSSQSLLNSGNQKNYLTWYQQKPGQPPKLLIYWASTRESGVPDRFSGSGSGKDFTLTISSLQAEDVAVYYCQNNYFYPLTFGGGTKVEIK . Output pEC50: 8.85
